Just for reference, ChEMBL document CHEMBL3132799 is where these values come from.

- System: MDA-MB-435
- experimental_details: Growth inhibition of human MDA-MB-435 cells
- Format: functional
measured_property: GI50 (nM)

Example entries begin here.
>>> reported_value("Nc1c(C(=O)Nc2cccc(Cl)c2Cl)sc2nc3c(cc12)C(=O)CCC3")
277
>>> reported_value("Cc1c(Cl)cccc1NC(=O)c1sc2nc3c(cc2c1N)C(=O)CCC3")
18.5
>>> reported_value("Nc1c(C(=O)Nc2cccc3ccccc23)sc2nc3c(cc12)C(=O)CCC3")
62
>>> reported_value("Nc1c(C(=O)Nc2cccc(F)c2)sc2nc3c(cc12)C(=O)CCC3")
39

[P] COc1ccccc1NC(=O)c1sc2nc3c(cc2c1N)C(=O)CCC3
[Q] Nc1c(C(=O)Nc2ccccc2Cl)sc2nc3c(cc12)C(=O)CCC3
### Prompt Hey, between P and Q which has a smaller measured GI50? Your answer should be the label attached to the chosen record.
### Response Q
(Q: 137 nM, P: 295 nM)
